Values were extracted from the NIST ThermoML archive (doi:10.1016/j.jct.2016.01.017).

Consider the following compounds; for each one, report its activity coefficient.
Assay: activity coefficient (dimensionless); of the first substance listed, at infinite dilution; xn = mol fraction of the nth substance listed
Conditions: 318.15 K; 100 kPa; Liquid; Chromatography; x1 = 0

Problem: Quick check: activity coefficient of COC(C)=O [methyl ethanoate] + CCCC[n+]1ccc(C#N)cc1.O=S(=O)([N-]S(=O)(=O)C(F)(F)F)C(F)(F)F ?
Result: 0.646

Problem: What value of activity coefficient has been reported for the following compound? C1=CCCCC1 [cyclohexene] + CCCC[n+]1ccc(C#N)cc1.O=S(=O)([N-]S(=O)(=O)C(F)(F)F)C(F)(F)F
Result: 7.4

Problem: Which activity coefficient reading was recorded for the compound CC(C)CO [2-methyl-1-propanol] + CCCC[n+]1ccc(C#N)cc1.O=S(=O)([N-]S(=O)(=O)C(F)(F)F)C(F)(F)F ?
Result: 2.93

Problem: # input compound: CC(C)(C)O [2-methylpropan-2-ol] + CCCC[n+]1ccc(C#N)cc1.O=S(=O)([N-]S(=O)(=O)C(F)(F)F)C(F)(F)F ; wanted: its activity coefficient
Result: 2.14

Problem: Suppose we examine the compound CCCCCCCCC [nonane] + CCCC[n+]1ccc(C#N)cc1.O=S(=O)([N-]S(=O)(=O)C(F)(F)F)C(F)(F)F ; what activity coefficient value has been reported?
Result: 85.9

Problem: So what does the record say about activity coefficient for C1CCCCCCC1 [cyclooctane] + CCCC[n+]1ccc(C#N)cc1.O=S(=O)([N-]S(=O)(=O)C(F)(F)F)C(F)(F)F ?
Result: 25.2

Problem: Give the measured activity coefficient of CCC(=O)CC [pentan-3-one] + CCCC[n+]1ccc(C#N)cc1.O=S(=O)([N-]S(=O)(=O)C(F)(F)F)C(F)(F)F .
Result: 0.746

Problem: Which activity coefficient is listed for C#CCCC [1-pentyne] + CCCC[n+]1ccc(C#N)cc1.O=S(=O)([N-]S(=O)(=O)C(F)(F)F)C(F)(F)F ?
Result: 3.48

Problem: Need activity coefficient of CC1CCCCC1 [methylcyclohexane] + CCCC[n+]1ccc(C#N)cc1.O=S(=O)([N-]S(=O)(=O)C(F)(F)F)C(F)(F)F , thanks.
Result: 21.8

Problem: Given the entry CCC(=O)OC [methyl propanoate] + CCCC[n+]1ccc(C#N)cc1.O=S(=O)([N-]S(=O)(=O)C(F)(F)F)C(F)(F)F , report its measured activity coefficient.
Result: 0.855

Problem: Quick one: activity coefficient for CCC(C)(C)C [2,2-dimethylbutane] + CCCC[n+]1ccc(C#N)cc1.O=S(=O)([N-]S(=O)(=O)C(F)(F)F)C(F)(F)F ?
Result: 31.3

Problem: Any idea what activity coefficient was measured for CCc1ccccc1 [ethylbenzene] + CCCC[n+]1ccc(C#N)cc1.O=S(=O)([N-]S(=O)(=O)C(F)(F)F)C(F)(F)F ?
Result: 2.58

Problem: Name the reported activity coefficient value associated with the compound CCCC(=O)OC [methyl butanoate] + CCCC[n+]1ccc(C#N)cc1.O=S(=O)([N-]S(=O)(=O)C(F)(F)F)C(F)(F)F
Result: 1.22

Problem: Sample CCO [ethanol] + CCCC[n+]1ccc(C#N)cc1.O=S(=O)([N-]S(=O)(=O)C(F)(F)F)C(F)(F)F — what was its activity coefficient?
Result: 1.74
